Values were extracted from the supplement of paper PMC10567573.

B1: PTPN9 (parent)
chain: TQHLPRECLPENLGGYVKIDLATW

# Variants of: B1
# protocol text: protein stability index of a GFP-peptide fusion (GPS, HEK-293T) (PSI 1-6); higher = more stable;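 further: lentivirally expressed fusions sorted by FACS into six bins by GFP to DsRed ratio, PSI derived from sequencing read proportions per bin multiplied by bin number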
# conditions: c terminus: a fixed tail appended
property measured: protein stability index
The answer should be written as a number, with no unit following it.

These recorded examples may help you get a feel for the data.
mutation_key=G14R property_measured="protein stability index" recorded_measurement=2.04
mutation_key=N12V property_measured="protein stability index" recorded_measurement=2.03
mutation_key=L9M property_measured="protein stability index" recorded_measurement=2.03
mutation_key=L21Y property_measured="protein stability index" recorded_measurement=1.97
mutation_key=L13K property_measured="protein stability index" recorded_measurement=1.96
mutation_key=V17R property_measured="protein stability index" recorded_measurement=2
mutation_key=H3K property_measured="protein stability index" recorded_measurement=2.03
mutation_key=L4V property_measured="protein stability index" recorded_measurement=1.96

Asked: What protein stability index value was documented for this variant, L9Y ?
Given back: 1.97

Asked: What protein stability index value was documented for this variant, L4R ?
Given back: 2.04

Asked: What protein stability index value was documented for this variant, A22Q ?
Given back: 2.01
